molecular target: α1β3 GABAAR (Homo sapiens, UniProt P14867+P28472); experiment: Inhibition of [3H]21-pTFDBzox-AP photolabeling of purified α1β3 GABAAR
Sequence (P14867 28-456): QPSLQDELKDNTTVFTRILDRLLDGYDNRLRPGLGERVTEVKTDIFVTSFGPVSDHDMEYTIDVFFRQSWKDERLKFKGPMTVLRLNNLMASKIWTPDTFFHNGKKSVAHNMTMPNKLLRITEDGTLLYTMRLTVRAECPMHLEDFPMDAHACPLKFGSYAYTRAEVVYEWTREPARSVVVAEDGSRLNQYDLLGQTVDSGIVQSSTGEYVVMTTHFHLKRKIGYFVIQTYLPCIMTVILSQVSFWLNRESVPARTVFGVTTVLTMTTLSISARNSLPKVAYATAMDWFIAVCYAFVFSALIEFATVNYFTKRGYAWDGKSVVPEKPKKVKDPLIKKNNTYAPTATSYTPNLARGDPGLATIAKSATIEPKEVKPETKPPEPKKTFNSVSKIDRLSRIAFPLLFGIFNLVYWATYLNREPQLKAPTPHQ
Sequence (P28472 26-473): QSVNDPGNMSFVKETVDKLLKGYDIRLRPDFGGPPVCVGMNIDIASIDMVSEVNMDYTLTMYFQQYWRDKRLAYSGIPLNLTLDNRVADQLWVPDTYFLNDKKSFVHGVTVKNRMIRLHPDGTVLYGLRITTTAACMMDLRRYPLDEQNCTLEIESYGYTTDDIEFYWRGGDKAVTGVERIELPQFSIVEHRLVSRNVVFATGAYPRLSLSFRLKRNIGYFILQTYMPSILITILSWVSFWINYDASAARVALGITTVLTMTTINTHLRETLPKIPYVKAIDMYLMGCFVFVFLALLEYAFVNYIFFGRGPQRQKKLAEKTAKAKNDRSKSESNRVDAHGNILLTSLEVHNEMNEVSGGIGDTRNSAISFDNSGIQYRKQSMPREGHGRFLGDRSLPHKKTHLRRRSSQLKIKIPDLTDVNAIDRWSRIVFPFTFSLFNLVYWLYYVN
MEASURED_PARAMETER: IC50 (nM)

[[record]]
smiles_string = "CC(=O)[C@H]1CC[C@H]2[C@@H]3CC[C@@H]4C[C@H](O)CC[C@]4(C)[C@H]3CC[C@]12C"
measured_parameter = "IC50"
val = 700

